EXPERIMENT DESCRIPTION: in vitro
REPORTED CONDITIONS: human, hela cells, % viability
Entries and their measured viability at 28.5 h, 10 µM follow.
# output: bare number, implied unit %

These solved cases illustrate the format of a correct answer.
                                   molecule  reported_result
0  CN(c1nc(-c2cccnc2)cn2ccnc12)C1CCCCC1 [CBK093609]               87
1  CCS(=O)(=O)N1CCC(C(=O)NC2CC(C)(C)Oc3ccccc32)CC1 (stereo not drawn) [CBK304364]             90.1
2  CC(C)(C)OC(=O)C1(NC(=O)Cc2cn3ccccc3n2)CCCC1 [CBK305500]             95.9
3  CN(C)CCCN(Cc1ccco1)Cc1c[nH]nc1-c1cccs1 [CBK283198]              106
4  Cc1nn(C)c(C)c1-c1ccc(=O)n(Cc2ccc(F)cc2)n1 [CBK282258]             95.3

Fill blank: measured viability at 28.5 h, 10 µM of the molecule Cn1cc(C2CCCCCN2C(=O)c2ccc(F)cc2)cn1 (stereo not drawn) [CBK284913] is ____. 76.8

Requested read-out: viability at 28.5 h, 10 µM. Entry: CN(C)C(=O)c1ccc(-c2ccc(OC3CCN(C(=O)CC(C)(C)c4ccccc4)CC3)nc2)cc1 [CBK155047] 101

Reported viability at 28.5 h, 10 µM for COc1ccnc(N2CCN(C(=O)c3cnn(C)c3C3CC3)CC2)n1 [CBK304900] : what is it? 85.3

Which viability at 28.5 h, 10 µM value belongs to Cn1c(CN2CCN(C(=O)c3ccco3)CC2)nc2cc([N+](=O)[O-])ccc21 [CBK268473] ? 108

# get_value(readout='viability at 28.5 h, 10 µM', item= CN(CC(=O)O)S(=O)(=O)c1ccc(F)c2ccccc12 [CBK268447] ) 98.5

Given O=C(CSc1nc2ccccc2c(=O)[nH]1)Nc1ccc(Cl)c(C(=O)O)c1 [CBK268246] , state its recorded viability at 28.5 h, 10 µM. 103

Could you share which viability at 28.5 h, 10 µM value was measured for COc1ccccc1C1(O)CCN(CC(O)c2ccc3c(c2)OCCO3)CC1 (stereo not drawn) [CBK286482] ? 90.1

If you can, please state the reported viability at 28.5 h, 10 µM value of Fc1ccccc1CN1CCC(Oc2nccnc2OCC2COc3ccccc3O2)CC1 (stereo not drawn) [CBK082979T] . 101

Which viability at 28.5 h, 10 µM is listed for NCc1oc(-c2ccccc2)cc1C(=O)O [CBK265941C] ? 89.8

Fill blank: measured viability at 28.5 h, 10 µM of the molecule Clc1cc(NCc2ccc(Cl)c(Cl)c2)n2nccc2n1 [CBK037043] is ____. 97.7

Record request: viability at 28.5 h, 10 µM value, item Cc1ccc(CCn2cc(C)nc2C)cn1 [CBK021231] 106

Look up viability at 28.5 h, 10 µM for this molecule: Cc1cc(NC(=O)c2cscn2)c2ccccc2n1 [CBK116275] 85.6

Look up viability at 28.5 h, 10 µM for this molecule: O=[N+]([O-])c1cc(S(=O)(=O)Nc2cccc(-c3cnco3)c2)ccc1Cl [CBK067125] 95.7

// lookup viability at 28.5 h, 10 µM for Cc1cc(C)c(C#N)c(N2CCOC3(CCN(C(=O)OCc4ccccc4)CC3)C2)n1 [CBK161114T] 91

Quick one: viability at 28.5 h, 10 µM of Cc1cc(/C=C(/C#N)c2cccc(F)c2)c(C)n1-c1ccc(S(N)(=O)=O)cc1 [CBK268268] ? 99.9

Returns the measured viability at 28.5 h, 10 µM for the input molecule. Input: Cc1cc(NC(=O)CN2CCN(Cc3ccc(Cl)nc3)CC2)no1 [CBK305504] 104

May I ask what viability at 28.5 h, 10 µM has been recorded for O=C(CSc1ncnc2c1cnn2-c1ccccc1)Nc1ccccc1 [CBK269408] ? 96.4

Please look up its viability at 28.5 h, 10 µM: O=C(NCc1cccnc1)c1ccc(CSc2ccccc2)cc1 [CBK300544] 101

What value of measured viability at 28.5 h, 10 µM is listed for CCC(Sc1nc(C)cc(C)n1)C(=O)Nc1ccc(NC(C)=O)cc1 (stereo not drawn) [CBK269804] ? 89

----------
Each entry below carries its reported viability at 28.5 h, 10 µM.
EXPERIMENT DESCRIPTION: in vitro
REPORTED CONDITIONS: human, hela cells, % viability
Expressed in %, but write only the number.

>>> print(df.to_string())
                                   compound  reported_result
0  O=C1c2ccccc2S(=O)(=O)N1CC(O)Cn1c2ccc(Cl)cc2c2cc(Cl)ccc21 (stereo not drawn)              101
1  CCc1ccc(CN(C)C(=O)COC(=O)c2cc(-c3ccccc3)nc3onc(C)c23)cc1             89.5

Now let's try a different one.
Reported viability at 28.5 h, 10 µM, compound O=C(CCn1c(C(F)F)cc2cccnc21)NCc1ccccn1 : ____ 100

----------
List of viability at 28.5 h, 1 µM values.
EXPERIMENT DESCRIPTION: in vitro
Set-up: Viability of infected HeLa host cells, resazurin conversion, bulk resorufin fluorescence relative to DMSO
REPORTED CONDITIONS: human, hela cells; bulk resorufin, mean of 2
Field format: number, assumed %, no unit text.

>>> print(df.to_string())
                                   compound  reported_result
0  N#CCCCN1CCC(Oc2cncc(OCc3ccc(Cl)c(Cl)c3)n2)C1 (stereo not drawn)             95.4
1  COc1ccc(C=CC(=O)Nc2sc3c(c2C(=O)O)CCCC3)cc1OC             91.1
2  COC(=O)N1CCc2ccc(N3C[C@H](CNC(C)=O)OC3=O)cc2CC1             88.3
3  Cc1ccc(NC(=O)N(Cc2ccc(-c3ccccc3)cc2)CC(C)(C)CN)c(C)c1 [CBK002428C]             90.2
4  Cc1ccc(NC(=O)n2ccc3c(N4CCNCC4)cccc32)cc1[N+](=O)[O-] [CBK003747C]             89.8

Given the compound Cn1cc(C(c2ccc(OCC(=O)O)cc2)c2cn(C)c3ccccc23)c2ccccc21 , what is its reported viability at 28.5 h, 1 µM? 113

Any idea what its viability at 28.5 h, 1 µM is? The compound is CC(C)(C)CC(C)(C)NC(=S)Nc1ccc2nc(-c3ccccn3)c(-c3ccccn3)nc2c1 110

May I ask what viability at 28.5 h, 1 µM has been recorded for C/C(=N\Nc1nnc2c(n1)[nH]c1ccccc12)c1ccccn1 ? 87.3

Quick one: viability at 28.5 h, 1 µM for Oc1c(CN2CCN(c3ccc(F)cc3)CC2)cc(Br)c2cccnc12 ? 96.2

Requested read-out: viability at 28.5 h, 1 µM. Entry: Cc1cccc(Nc2nc(C)cc3n[nH]c(=O)n23)c1 102

So what does the record say about viability at 28.5 h, 1 µM for O=C(NCCc1c[nH]c2ccc(Cl)cc12)c1ccc(Cl)cc1Br ? 89

Returns the measured viability at 28.5 h, 1 µM for the input compound. Input: CC(NC(C)(C)C)C(O)COc1ccc(Cl)c2c1C1CCC2CC1 (stereo not drawn) [CBK017752C] 90.2

----------
Reported viability at 28.5 h, 10 µM by item:
EXPERIMENT DESCRIPTION: in vitro
REPORTED CONDITIONS: human, hela cells, % viability
Could you give me the number in %? Just the number is fine.

Worked examples, 5 compounds total:
>>> df
                                   compound  units_text  reported_result
0  O=C(c1ccco1)N(CCCn1ccnc1)c1nc2c(F)cccc2s1           %             86.4
1  CN(Cc1ccccc1)C(=O)c1c[nH]nc1C1CCCN(CC2CCCCC2)C1 (stereo not drawn)           %             94.4
2   CCOC(=O)c1cnc2c(C)cc(C)cc2c1NCCN1CCOCC1           %              109
3  COC(=O)c1sc(NC(=O)C2CCCCC2C(=O)O)c(C(=O)OC)c1C (stereo not drawn)           %              106
4        OCCN(Cc1cccnc1)Cc1cccn1-c1ccccc1Cl           %             89.7

// lookup viability at 28.5 h, 10 µM for CN1CCCCC/C1=N/C(=S)CN1CCCC1=S 96.3

Please give the measured viability at 28.5 h, 10 µM for this compound: CCN1CCN(c2ccc(NC(=O)c3ccc([N+](=O)[O-])c(C)c3)cc2)CC1 115

Any idea what its viability at 28.5 h, 10 µM is? The compound is Cc1noc(NS(=O)(=O)c2ccc(NC(=O)/C=C/c3ccc(Cl)cc3Cl)cc2)c1C 90.4

Could you tell me which viability at 28.5 h, 10 µM is on file for CC(Nc1n[nH]c(=O)[nH]c1=O)C(=O)N/N=C/c1ccccc1O (stereo not drawn) ? 91.7
